test: amyloid nucleation score (Sup35N fusion, yeast selection) (log enrichment); library NNK3; higher = more nucleation; inactive = no reads after selection;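 also: zero at mode of non-aggregating sequences after 7 days selection at 30°C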
METRIC: amyloid nucleation score

Here are 5 substances together with their reported answers.
# SUBSTANCE, amyloid nucleation score
records = [
    ("CRAVND", "inactive"),
    ("IKAGTEVVFRTSDLFMTMLQ", "inactive"),
    ("CSNWLWWYYYVRMYRSVRFS", -0.368),
    ("RCTVNRRQSRSAHGMGPSSS", "inactive"),
    ("PYLLMWSA", "inactive"),
]

**Query** What value of amyloid nucleation score has been recorded for this entry: `FPELSGDYLVIRMTVQFWSV`
**Result** inactive

**Query** I am curious: what amyloid nucleation score value has been reported for `FWKCWAVPDVCFYVWRSGCF` ?
**Result** inactive

**Query** Given the substance `FGVYKLSWNP` , what is its reported amyloid nucleation score?
**Result** 0.044

**Query** May I ask what amyloid nucleation score has been recorded for `FSQIPRYISNTKRWLWDYVN` ?
**Result** inactive

**Query** Quick one: amyloid nucleation score for `MYTQCLVYSR` ?
**Result** inactive

---

assay: amyloid nucleation score (Sup35N fusion, yeast selection) (log enrichment); library NNK3; higher = more nucleation; inactive = no reads after selection
METRIC: amyloid nucleation score

# SUBSTANCE, amyloid nucleation score
measured = [
    ("SRKVYEPKVPLAVSGCRMNV", "inactive"),
    ("IEVVYNLFWSRTFGAFVTKV", "inactive"),
    ("SLSLSIIRAVDFWDMVRGLN", "inactive"),
    ("LNKLEVNDVSIGYVNCTLFK", "inactive"),
]

**Query** # get_value(readout='amyloid nucleation score', item= `NFLRCVHFLKFFMDFNGTSG` )
**Result** inactive

**Query** For the substance shown here, `GRFASYMYCILQQHSLFYWV` , give the reported amyloid nucleation score.
**Result** inactive

**Query** # input substance: `MWLPPAVQVLLILKAVIVKL` ; wanted: its amyloid nucleation score
**Result** inactive

**Query** Request the reported amyloid nucleation score associated with `VYDNNYINFRSLLYMTKVSN`
**Result** inactive

**Query** So what's the measured amyloid nucleation score for this one? `LQWVRLVSRVQSTDCNLGAG`
**Result** inactive

**Query** What does the record list as amyloid nucleation score for `NWFRMFIGFNSCAIRRIIWD` ?
**Result** inactive

**Query** Which amyloid nucleation score value belongs to `SGCDLLFFYYHRRTVPLANW` ?
**Result** inactive

**Query** What value of amyloid nucleation score has been reported for the following substance? `GVCKWFCESIDMTLRAVWAN`
**Result** inactive

**Query** # query: amyloid nucleation score of entry `LSVANQNCVKLDIVHM`
**Result** inactive

**Query** Which measured amyloid nucleation score value corresponds to `ILSRRLRLQLLFDFYNCLCG` ?
**Result** inactive

**Query** Endpoint output: amyloid nucleation score of `GCFLNNMLIGF` . Value?
**Result** inactive

**Query** // lookup amyloid nucleation score for `VRSKLYGPDVYPTHLGTAVM`
**Result** inactive

**Query** Field request: amyloid nucleation score | item: `GYSVYYANVSVRGLKSRDHC`
**Result** inactive

**Query** Looking for the measured amyloid nucleation score of `PCLSMRSNLRGYTWWSVGGY` , can you help?
**Result** 1.11

**Query** Need amyloid nucleation score, item `LIWFGGGPSRWSM`
**Result** -0.117

**Query** Using the record for `YCVQCR` , report its amyloid nucleation score.
**Result** inactive

**Query** I am curious: what amyloid nucleation score value has been reported for `AILLWNCLHSSVSLLKKAYS` ?
**Result** -0.518

**Query** Request the reported amyloid nucleation score associated with `RGFLVRWAPFCLGFGSTLND`
**Result** inactive

**Query** // returns reported amyloid nucleation score for input `WYSRTDCNKTAENSCSTKFI`
**Result** 0.611

**Query** Reported amyloid nucleation score for `IMIYSQPKGEASCFGCFRLG` : what is it?
**Result** 0.702

**Query** Any idea what its amyloid nucleation score is? The substance is `SLSFIECLMELNNLVYYLGS`
**Result** inactive

**Query** Record request: amyloid nucleation score value, item `SYVVSQPFSHRYWESLTMAL`
**Result** inactive

---

assay: amyloid nucleation score (Sup35N fusion, yeast selection) (log enrichment); library NNK2; higher = more nucleation; inactive = no reads after selection
Label rule, in plain words: amyloid nucleation score of 0.5 and up is true, under 0.5 is false.

Some solved cases for reference:
# SUBSTANCE, DISCRETE_LABEL
rows = [
    ("IQVRRITG", "false"),
    ("CIKVCALGCVDGVLVWERRW", "true"),
    ("CMFPSVCQPLTGMTVYGNST", "false"),
    ("VFRGAVSWTVLIGDNKVVLY", "true"),
]

**Query** Assess whether reported amyloid nucleation score for `GNTHHRDGILESQPFFVTEA` sits at 0.5 or higher.
**Result** false

**Query** Does `RWLPSVID` have a reported amyloid nucleation score of at least 0.5?
**Result** false

**Query** # bool: amyloid nucleation score of `LYMCSSVLWVGLSLV` >= 0.5
**Result** true

**Query** Answer whether amyloid nucleation score of `RWATVLLDPF` is greater than or equal to 0.5.
**Result** false

**Query** Say whether `TNCSIMGTFSYFNDCSLGGT` shows amyloid nucleation score of 0.5 or more.
**Result** true

**Query** Quick check, amyloid nucleation score >= 0.5? `YKWWCSW`
**Result** false

**Query** Say whether `EYFMATE` shows amyloid nucleation score of 0.5 or more.
**Result** false

**Query** Please tell me: is the substance `ASSTNVYLIIIGLWSAAM` at or over 0.5 in terms of amyloid nucleation score?
**Result** true

**Query** Could you verify whether the entry `REVWCRISLKFFYMGDLFVR` shows amyloid nucleation score of no less than 0.5?
**Result** false

**Query** Reported amyloid nucleation score reaches at least 0.5 for `CNVAHRLRVRSVAK` ?
**Result** true

---

test: amyloid nucleation score (Sup35N fusion, yeast selection) (log enrichment); library NNK3; higher = more nucleation; inactive = no reads after selection
METRIC: amyloid nucleation score

# example entries with known answers
# SUBSTANCE, amyloid nucleation score
records = [
    ("VNVTIGIYKRHRYLWSGIAM", "inactive"),
    ("FAKFAKSYNRPITVVLANCS", "inactive"),
    ("SAIPKGKATITFPPLKSFVR", 1.02),
    ("TAYFFSVARVMVDLTTALLA", 0.161),
    ("CANQGGCIICDATYQCVIIA", 0.649),
]

**Query** Fill in: amyloid nucleation score of `DQMIEDRNWNGVNDYSYNAC` is ___
**Result** inactive

**Query** Give the measured amyloid nucleation score of `MPCNVKYSTVCFTA` .
**Result** inactive

---

experiment: amyloid nucleation score (Sup35N fusion, yeast selection) (log enrichment); library NNK2; higher = more nucleation; inactive = no reads after selection
Decide using amyloid nucleation score: a value greater than or equal to 0.4 is 1, a smaller one is 0.

Below are worked cases with known answers.
# SUBSTANCE, DISCRETE_LABEL
measured = [
    ("SDNMFSWRCLKDTWLDRRWA", 0),
    ("NYWWYVPW", 1),
]

**Query** Textbook exercise: given the entry `AFDGGIFFSLMSFMLVWMGS` , state whether its amyloid nucleation score is greater than or equal to 0.4.
**Result** 0

---

test: amyloid nucleation score (Sup35N fusion, yeast selection) (log enrichment); library NNK2; higher = more nucleation; inactive = no reads after selection
Some sequences, each annotated with its measured amyloid nucleation score.
Keep the answer to the number alone.

// worked examples, amyloid nucleation score included
# MACROMOLECULE_SEQUENCE, REPORTED_RESULT
data = [
    ("PYWFRFLSYVQMLEYFCAPV", -0.764),
    ("ICSYVTVCVRLGFCKLNAMM", 0.504),
    ("DAHTMIGRYTDSSLRHRTWV", 1.05),
    ("LTHEKLKGLYCTA", -0.404),
    ("STSLVTIPCGGFGFKYSANP", 0.171),
    ("IFCLPIKKRVMYNHGLTIFG", 0.461),
]

Read the next record carefully.
**Query** What value of amyloid nucleation score has been recorded for this entry: `LDTVPTWFYQVMWGYDWVLK`
**Result** 2.81

---

experiment: amyloid nucleation score (Sup35N fusion, yeast selection) (log enrichment); library NNK2; higher = more nucleation; inactive = no reads after selection
Categorize each record by its amyloid nucleation score using low bracket: < 0.08; middle bracket: ≥ 0.08 and < 1; high bracket: ≥ 1

# SUBSTANCE, DISCRETE_LABEL
records = [
    ("FSTCYPPSDWVSRMASETLN", "low bracket"),
    ("HAMLRTDILICCITH", "high bracket"),
    ("GSSNASVATGFVHIKEVKGG", "middle bracket"),
    ("VHAPLLRRPNVLHTKLH", "middle bracket"),
    ("ASWYRMWMWCEHTSSRLCVK", "high bracket"),
    ("LSMSWC", "high bracket"),
    ("NVFFSFSMYKDAYNE", "low bracket"),
    ("YYINVDQESGSWMRTSVKGA", "middle bracket"),
]

**Query** // return the class label for `SAFYKQCEWFFNLMANSLCG`
**Result** low bracket

**Query** Input `FSVRVTSRFIRYEGSFHFSK` ; output its category
**Result** low bracket
